# test-description: Lactate dehydrogenase (LDH) release assay
# Type: cell-based
# condition-parameters: LDH: Cytotoxicity assay EC50
pEC50: −log10 of the molar value.
reported-property: pEC50

Task: Query (molecule): `CC(=O)N[C@@H](CCCCN=[N+]=[N-])C(=O)NCCC(=O)N[C@@H](CC(C)C)C(=O)N[C@H](C(=O)N[C@@H](Cc1ccccc1)C(=O)N[C@]1(C)CCCCCCC=CCCC[C@@](C)(C(=O)N2CCC[C@H]2C(=O)N2CCC[C@H]2C(=O)N2CCC[C@H]2C(=O)N2CCC[C@H]2C(=O)N2CCC[C@H]2C(=O)N2CCC[C@H]2C(N)=O)NC(=O)[C@H](CC2CCC2)NC(=O)[C@H](CCC(N)=O)NC(=O)[C@H](C)NC(=O)[C@H](Cc2c[nH]c3ccccc23)NC(=O)[C@H](Cc2ccc(O)cc2)NC(=O)[C@H](CCC(=O)O)NC1=O)[C@@H](C)O` ; field requested: pEC50
Result: < 4.29

###

# test-description: Solubility assay (kinetic solubility, PBS pH 7)
# Assay type: physicochemical
# condition-parameters: pH 7, aqueous buffer, kinetic from dmso stock, pH 7, PBS; read-out: Solubility
Positions of bridges follow the written chain, without caps; N, C: chain ends. Non-standard residues stand in square brackets, D forms with d. Residues, ends and D or L forms follow the SMILES beside them. R8 = C=CCCCCCC[C@@](C)(N)C(=O)O; Cba = N[C@@H](CC1CCC1)C(=O)O; S5 = C=CCCC[C@](C)(N)C(=O)O
For each entry below, report its solubility kinetic value.
Answers are plain numbers, in µM.

CC(=O)N[C@@H](CC(C)C)C(=O)N[C@@H](Cc1c[nH]cn1)C(=O)N[C@@H](Cc1ccccc1)C(=O)N[C@]1(C)CCCCCCC=CCCC[C@@](C)(C(=O)N[C@@H](CO)C(=O)N[C@@H](C)C(=O)N[C@@H](C)C(N)=O)NC(=O)[C@H](CC2CCC2)NC(=O)[C@H](CC(C)C)NC(=O)[C@H](CCC(N)=O)NC(=O)[C@H](Cc2c[nH]c3ccccc23)NC(=O)[C@H](Cc2ccc(O)cc2)NC(=O)[C@H](CCC(=O)O)NC1=O [MP-198, ATSP-7041 (T2H)] (Ac-LHF[R8]EYWQL[Cba][S5]SAA-NH2; staple 4-11) = 25

# ---- query molecule ----
Task: Using the record for CC(=O)N[C@@H](CCCCN=[N+]=[N-])C(=O)NCCC(=O)N[C@@H](CCCCN)C(=O)N[C@H](C(=O)N[C@@H](Cc1ccccc1)C(=O)N[C@]1(C)CCCCCCC=CCCC[C@@](C)(C(=O)N[C@@H](CO)C(=O)N[C@@H](C)C(=O)N[C@@H](C)C(N)=O)NC(=O)[C@H](CC2CCC2)NC(=O)[C@H](CCC(N)=O)NC(=O)[C@H](C)NC(=O)[C@H](Cc2c[nH]c3ccccc23)NC(=O)[C@H](Cc2ccc(O)cc2)NC(=O)[C@H](CCC(=O)O)NC1=O)[C@@H](C)O [MP-546, AZIDE-ATSP-7041 (L1K)] , report its solubility kinetic.
Result: 2

###

Hi there, I'd appreciate the recorded cell entry EC50 for every entry that follows.
# test-description: in vitro
# condition-parameters: Nanoclick permeability assay EC50
One number for each entry, in nM.

Observe how each entry below is paired with its result.
CC(=O)N[C@@H](CCC(=O)O)C(=O)N[C@@H](CCC(=O)O)C(=O)N[C@@H](CCCCN=[N+]=[N-])C(=O)NCCCCCC(=O)N[C@H](C(=O)N[C@@H](CO)C(=O)N[C@@H](Cc1ccccc1)C(=O)N[C@]1(C)CCCCCCC=CCCC[C@@](C)(C(N)=O)NC(=O)[C@H](CC(C)C)NC(=O)[C@H](CC(C)C)NC(=O)[C@H](C)NC(=O)[C@H](Cc2c[nH]c3ccccc23)NC(=O)[C@H](Cc2ccc(O)cc2)NC(=O)[C@H](CCC(=O)O)NC1=O)[C@@H](C)O = 546
CC(C)C[C@@H]1NC(=O)[C@H](C)NC(=O)[C@H](Cc2c[nH]c3ccccc23)NC(=O)[C@H](Cc2ccc(O)cc2)NC(=O)[C@H](CCC(=O)O)NC(=O)[C@](C)(NC(=O)[C@H](Cc2ccccc2)NC(=O)[C@H](CO)NC(=O)[C@@H](NC(=O)CCNC(=O)[C@@H](N)CCCCN=[N+]=[N-])[C@@H](C)O)CCCCCCC=CCCC[C@@](C)(C(N)=O)NC(=O)[C@H](CC(C)C)NC1=O = 130

We now examine a further molecule.
Task: Name the recorded cell entry EC50 for `CC(=O)N[C@@H](CCCCN=[N+]=[N-])C(=O)N[C@@H](CCCCN)C(=O)N[C@@H](CC(C)C)C(=O)N[C@H](C(=O)N[C@@H](Cc1ccccc1)C(=O)N[C@]1(C)CCCCCCC=CCCC[C@@](C)(C(=O)N[C@@H](CO)C(=O)N[C@@H](C)C(=O)N[C@@H](C)C(N)=O)NC(=O)[C@H](CC2CCC2)NC(=O)[C@H](CCC(N)=O)NC(=O)[C@H](C)NC(=O)[C@H](Cc2c[nH]c3ccccc23)NC(=O)[C@H](Cc2ccc(O)cc2)NC(=O)[C@H](CCC(=O)O)NC1=O)[C@@H](C)O` .
Result: 1170

###

# Test system: HCT116 cells
# test-description: Lactate dehydrogenase (LDH) release assay
# Type: cell-based
# Method: HCT116 cells were stably transfected with a p53 responsive β-lactamase reporter and expanded in McCoy’s 5 A Medium with 10% fetal bovine serum (FBS), Blasticidin, and Penicillin/Streptomycin and then transferred to 1.5 ml freezing vials and stored under liquid nitrogen in growth media containing 5% DMSO. […] Lactate dehydrogenase release was detected using the CytoTox-ONE Homogenous Membrane Integrity Assay Kit (Promega), as per the manufacturer’s instructions. […]
reported-property: LDH: Cytotoxicity assay: % Effect
Please append the unit to your numeric answer.

Task: What measured LDH: Cytotoxicity assay: % Effect goes with CC(=O)N[C@@H](CCCCN)C(=O)NCCCCCC(=O)N[C@H](C(=O)N[C@@H](CO)C(=O)N[C@@H](Cc1ccccc1)C(=O)N[C@]1(C)CCCCCCC=CCCC[C@@](C)(C(=O)N[C@@H](CCC(=O)O)C(=O)N[C@@H](CC(N)=O)C(=O)N[C@@H](Cc2ccccc2)C(N)=O)NC(=O)[C@H](CC(C)C)NC(=O)[C@H](CC(C)C)NC(=O)[C@H](C)NC(=O)[C@H](Cc2c[nH]c3ccccc23)NC(=O)[C@H](Cc2ccc(O)cc2)NC(=O)[C@H](CCC(=O)O)NC1=O)[C@@H](C)O [MP-6210] ?
Result: 13.27%

###

# System: HCT116 cells
# test-description: Lactate dehydrogenase (LDH) release assay
# Type: cell-based
Positions of bridges follow the written chain, without caps; N, C: chain ends. Non-standard residues stand in square brackets, D forms with d. Residues, ends and D or L forms follow the SMILES beside them. Lys(N3) = [N-]=[N+]=NCCCC[C@H](N)C(=O)O; R8 = C=CCCCCCC[C@@](C)(N)C(=O)O; Cba = N[C@@H](CC1CCC1)C(=O)O; S5 = C=CCCC[C@](C)(N)C(=O)O; βAla = NCCC(=O)O
reported-property: LDH: Cytotoxicity assay: % Effect (%)
Numbers only, in %.

Previously resolved entries follow.
CC(=O)N[C@@H](CC(C)C)C(=O)N[C@H](C(=O)N[C@@H](Cc1ccccc1)C(=O)N[C@]1(C)CCCCCCC=CCCC[C@@](C)(C(=O)N[C@@H](CO)C(=O)N[C@@H](C)C(=O)N[C@@H](C)C(N)=O)NC(=O)[C@H](CC2CCC2)NC(=O)[C@H](CC(C)C)NC(=O)[C@H](CCC(N)=O)NC(=O)[C@H](C)NC(=O)[C@H](Cc2ccc(O)cc2)NC(=O)[C@H](CCC(=O)O)NC1=O)[C@@H](C)O [MP-364] (Ac-LTF[R8]EYAQL[Cba][S5]SAA-NH2; staple 4-11) = 68.78
CC(=O)N[C@@H](CCCCN=[N+]=[N-])C(=O)NCCC(=O)N[C@@H](CC(C)C)C(=O)N[C@H](C(=O)N[C@@H](Cc1ccccc1)C(=O)N[C@]1(C)CCCCCCC=CCCC[C@@](C)(C(=O)N[C@@H](CO)C(=O)N[C@@H](C)C(=O)N[C@@H](C)C(N)=O)NC(=O)[C@H](CC2CCC2)NC(=O)[C@H](CCC(N)=O)NC(=O)[C@H](C)NC(=O)[C@H](Cc2c[nH]c3ccccc23)NC(=O)[C@@H](CCC(=O)O)NC(=O)[C@H](C)NC1=O)[C@@H](C)O [MP-036] (Ac-[Lys(N3)][βAla]LTF[R8]A[dE]WAQ[Cba][S5]SAA-NH2; staple 6-13) = 2.628
CC(=O)N[C@@H](CCCCN=[N+]=[N-])C(=O)NCCC(=O)N[C@@H](CC(C)C)C(=O)N[C@H](C(=O)N[C@@H](Cc1ccccc1)C(=O)N[C@]1(C)CCCCCCC=CCCC[C@@](C)(C(=O)N[C@@H](CO)C(=O)N[C@@H](C)C(=O)N[C@@H](C)C(N)=O)NC(=O)[C@H](CC2CCC2)NC(=O)[C@H](CCC(N)=O)NC(=O)[C@H](C)N(C)C(=O)[C@H](Cc2c[nH]c3ccccc23)NC(=O)[C@H](Cc2ccc(O)cc2)NC(=O)[C@H](CCC(=O)O)NC1=O)[C@@H](C)O = 7.026

From here, focus on the item given below.
Task: Fill in: LDH: Cytotoxicity assay: % Effect of `CC(=O)N[C@@H](C)C(=O)N[C@@H](C)C(=O)N[C@@H](C)C(=O)N[C@@H](C)C(=O)N[C@@H](CC(C)C)C(=O)N[C@H](C(=O)N[C@@H](Cc1ccccc1)C(=O)N[C@]1(C)CCCCCCC=CCCC[C@@](C)(C(=O)N[C@@H](CO)C(=O)N[C@@H](C)C(=O)N[C@@H](C)C(N)=O)NC(=O)[C@H](CC2CCC2)NC(=O)[C@H](CCC(N)=O)NC(=O)[C@H](C)NC(=O)[C@H](Cc2c[nH]c3ccccc23)NC(=O)[C@H](Cc2ccc(O)cc2)NC(=O)[C@H](CCC(=O)O)NC1=O)[C@@H](C)O` is ___
Result: 2.492
